Numbers sourced from patent US7521478B2.

- Tested on: IGROV
- assay_overview: Inhibition of cell growth by colorimetric SRB assay, IGROV
- Assay type: cell-based
- measurement_parameters: Homo sapiens, 48 hours exposure, total growth inhibition, read-out: TGI
property_label: IC (total growth inhibition) (µM)
Provide only the numeric value, understood in µM.

// known answers, use as guide
C=C(C(=O)[C@H](COC(C)=O)[C@H](O)C1(C)O[C@@H]1[C@@H](C)/C=C\C)[C@@H](O)CC(=O)CC (stereo partly drawn) ... 5.67
C/C=C\[C@H](C)[C@H]1OC1(C)[C@@H](O[Si](C)(C)C(C)(C)C)[C@@H](CO)C(=O)[C@H](CO)[C@H](O)CC(=O)CC (stereo partly drawn) [20b + 20d] ... 20.5
C/C=C\[C@H](C)[C@H]1OC1(C)[C@@H](O[Si](C)(C)C(C)(C)C)[C@@H](CO)C(=O)[C@H](CO)[C@@H](O)CC(=O)CC (stereo partly drawn) [20a + 20c] ... 20.5
C/C=C\[C@H](C)[C@H]1OC1(C)[C@@H](O[Si](C)(C)C(C)(C)C)[C@@H](CO[Si](C)(C)C(C)(C)C)C(=O)[C@H](CO[Si](C)(C)C(C)(C)C)[C@@H](CC(=O)CC)O[Si](C)(C)C(C)(C)C (stereo partly drawn) [Compound 19b] ... 12
C/C=C\[C@H](C)[C@H]1OC1(C)[C@@H](O[Si](C)(C)C(C)(C)C)[C@@H](COC(C)=O)C(=O)[C@H](CO)[C@H](O)CC(=O)CC (stereo partly drawn) ... 9.99

# input for lookup
Ask: Sample C/C=C\[C@H](C)[C@H]1OC1(C)[C@@H](O)[C@@H](CO)C(=O)[C@H](CO)[C@H](O)CC(=O)CC (stereo partly drawn) — what was its IC (total growth inhibition)?
Result: 26.8
